System: Daudi (human B-cell lymphoma) xenograft bearing CB-17 SCID mice
Assay name: Biodistribution in Daudi xenograft bearing mice
Assay type: in vivo, mouse
Test conditions: 1h p.i., tracer only, i.v.; γ-counter; means ± SD, n=4-5 (68Ga: n=4)
Where a SMILES comes first, the peptide text is derived from it. Side-chain parts run from the residue outwards. [ ]: non-standard residue; d: D form. The star is where a group is joined. DOTA = O=C(O)CN1CCN(CC(=O)O)CCN(CC(=O)*)CCN(CC(=O)O)CC1; dTyr(3-I) = N[C@H](Cc1ccc(O)c(I)c1)C(=O)O; 2Nal = N[C@@H](Cc1ccc2ccccc2c1)C(=O)O; dNMeOrn = CN[C@H](CCCN)C(=O)O; 4Amb = NCc1ccc(C(=O)O)cc1; 4Abz = Nc1ccc(C(=O)O)cc1
Give measured Biodistribution tumor (Daudi xenograft) for each item. Keep answers brief.

Request: What does the data say about its Biodistribution tumor (Daudi xenograft)? Entry: C[C@@H](NC(=O)[C@@H](CCCNC(=N)N)NC(=O)CN1CCN(CC(=O)O)CCN(CC(=O)O)CCN(CC(=O)O)CC1)C(=O)Nc1ccc(C(=O)NCCC[C@@H]2C(=O)N[C@@H](CCCNC(=N)N)C(=O)N[C@@H](Cc3ccc4ccccc4c3)C(=O)NCC(=O)N[C@H](Cc3ccc(O)cc3)C(=O)N2C)cc1 [[^177Lu]DOTA-r-a-ABA-CPCR4] [metal not drawn] (cyclo([2Nal]G[dY][dNMeOrn]([4Abz-dA-dR-DOTA])R))
Response: 18.3±3.7 %iD/g

Request: What does the data say about its Biodistribution tumor (Daudi xenograft)? Entry: CN1C(=O)[C@@H](Cc2ccc(O)c(I)c2)NC(=O)CNC(=O)[C@H](Cc2ccc3ccccc3c2)NC(=O)[C@H](CCCNC(=N)N)NC(=O)[C@H]1CCCNC(=O)c1ccc(CNC(=O)CN2CCN(CC(=O)O)CCN(CC(=O)O)CCN(CC(=O)O)CC2)cc1 [[^177Lu]PentixaTher, metal not drawn, reference compound] (cyclo([dTyr(3-I)][dNMeOrn]([4Amb-DOTA])R[2Nal]G))
Response: 12.4±3.7 %iD/g

Request: What does the data say about its Biodistribution tumor (Daudi xenograft)? Entry: C[C@@H](NC(=O)[C@@H](CCCNC(=N)N)NC(=O)CN1CCN(CC(=O)O)CCN(CC(=O)O)CCN(CC(=O)O)CC1)C(=O)Nc1ccc(C(=O)NCCC[C@@H]2C(=O)N[C@@H](CCCNC(=N)N)C(=O)N[C@@H](Cc3ccc4ccccc4c3)C(=O)NCC(=O)N[C@H](Cc3ccc(O)c(I)c3)C(=O)N2C)cc1 [[^177Lu]DOTA-r-a-ABA-iodoCPCR4] [metal not drawn] (cyclo([2Nal]G[dTyr(3-I)][dNMeOrn]([4Abz-dA-dR-DOTA])R))
Response: 17.2±2.0 %iD/g

Request: What does the data say about its Biodistribution tumor (Daudi xenograft)? Entry: C[C@@H](NC(=O)[C@@H](CCCNC(=N)N)NC(=O)CN1CCN(CC(=O)O)CCN(CC(=O)O)CCN(CC(=O)O)CC1)C(=O)Nc1ccc(C(=O)NCCC[C@@H]2C(=O)N[C@@H](CCCNC(=N)N)C(=O)N[C@@H](Cc3ccc4ccccc4c3)C(=O)NCC(=O)N[C@H](Cc3ccc(O)c(I)c3)C(=O)N2C)cc1 [[^68Ga]DOTA-r-a-ABA-iodoCPCR4] [metal not drawn] (cyclo([2Nal]G[dTyr(3-I)][dNMeOrn]([4Abz-dA-dR-DOTA])R))
Response: 8.32 ± 1.30 %iD/g
